Attribution: ChEMBL document CHEMBL3352472

// values below are reported remaining at 10 min, 0.5 µM
assay comment: Metabolic stability in mouse liver microsomes assessed as compound remaining at 0.5 uM after 10 mins
Format: ADME
assay conditions: read-out: Stability
Numbers only here, please. The scale is %.

(Q) What remaining at 10 min, 0.5 µM value was documented for this compound, CC(C)(C)CN1CCC2(CC1)CN(c1ccccc1NC(=O)Nc1ccc(OC(F)(F)F)cc1)c1c(O)cc(F)c(-c3ccc(Cl)cc3)c12 ?
(A) 74

(Q) What remaining at 10 min, 0.5 µM value was documented for this compound, CC(C)CN1CCCC1c1ccc(NC(=O)Nc2ccccc2N2CC(C)(C)c3c(-c4ccc(F)cc4)ccc(O)c32)cc1 (stereo not drawn) ?
(A) 53
